I'd appreciate it if you could supply MIC S.aureus 8325-4 values for the items below.
- Test system: S.aureus 8325-4
- measurement.notes: Determination of antimicrobial activity (MIC, broth microdilution)
- Assay type: cell-based
- condition.set: IsoSensitest broth, inoculum 10^6 cells per mL, 16 h at 37 °C; unit assumed

Record O=C(N=NC(=O)NCc1ccccn1)NCc1ccccn1 ; system S.aureus 8325-4; MIC S.aureus 8325-4 = > 256 µg/mL

Entry CC(NC(=O)N=NC(=O)Nc1ccccc1)c1ccccc1 (stereo not shown) ; assay system S.aureus 8325-4; MIC S.aureus 8325-4 recorded at > 256 µg/mL

MIC S.aureus 8325-4 value, target or system S.aureus 8325-4, for O=C(N=NC(=O)Nc1cccc(Cl)c1)NCc1cccnc1 : 256 µg/mL

Param item: CCC(C)c1ccc(NC(=O)N=NC(=O)NCCCl)cc1 (stereo not shown) ; param system: S.aureus 8325-4; output MIC S.aureus 8325-4: > 256 µg/mL

Field MIC S.aureus 8325-4 (S.aureus 8325-4), entry O=C(N=NC(=O)Nc1ccccc1)NCc1ccccn1 : 64 µg/mL

# value of MIC S.aureus 8325-4, S.aureus 8325-4, item O=C(N=NC(=O)Nc1ccccc1)NCc1cccnc1 [drawing 22] = 128 µg/mL

Entry CC(C)(C)c1ccc(NC(=O)N=NC(=O)NCCCl)cc1 , tested on S.aureus 8325-4, has a reported MIC S.aureus 8325-4 of > 256 µg/mL

Case O=C(N=NC(=O)Nc1ccccc1)NCc1cccnc1 [drawing 18] , S.aureus 8325-4, MIC S.aureus 8325-4 recorded as > 256 µg/mL

Hey, S.aureus 8325-4 data for O=C(N=NC(=O)NCc1ccccn1)NCCCl : MIC S.aureus 8325-4 came out at > 256 µg/mL

Form field, MIC S.aureus 8325-4 with S.aureus 8325-4, item O=C(N=NC(=O)NCc1cccnc1)NCc1cccnc1 : > 256 µg/mL

S.aureus 8325-4 assay, compound O=C(/N=N/C(=O)NCCCl)NCCCl , recorded MIC S.aureus 8325-4 = > 256 µg/mL

Summary line: CC(C)c1ccc(NC(=O)N=NC(=O)NCCCl)cc1 , S.aureus 8325-4, reported MIC S.aureus 8325-4 = > 256 µg/mL

Value sought: MIC S.aureus 8325-4, system S.aureus 8325-4, item O=C(N=NC(=O)NCC(Cl)(Cl)Cl)NCC(Cl)(Cl)Cl . Result: > 256 µg/mL

###

- measurement.target: DdlB (Escherichia coli, UniProt P07862)
Give measured pIC50 for each item. Keep answers brief.
Note on pIC50: it is the negative log10 of concentration, concentration in mol/L.

Consider O=C(N=NC(=O)Nc1ccccc1)NCc1cccnc1 [drawing 18] . Its measured pIC50 is 4.12

Given item CC(C)c1ccc(NC(=O)N=NC(=O)NCCCl)cc1 , the value recorded as its pIC50 is 4.31

// sample CCC(C)c1ccc(NC(=O)N=NC(=O)NCCCl)cc1 (stereo not shown) , its pIC50 was 4.60

pIC50 reading for CC(C)(C)c1ccc(NC(=O)N=NC(=O)NCCCl)cc1 : 4.43

So, O=C(N=NC(=O)Nc1ccccc1)NCc1cccnc1 [drawing 22] ? Its pIC50 was 4.44

# compound O=C(N=NC(=O)Nc1ccccc1)NCc1ccccn1 ; its pIC50 = 3.95

The recorded pIC50 for entry O=C(N=NC(=O)NCc1cccnc1)NCc1cccnc1 equals 3.91

Given item CC(NC(=O)N=NC(=O)Nc1ccccc1)c1ccccc1 (stereo not shown) , the value recorded as its pIC50 is 4.39

The compound listed as O=C(N=NC(=O)NCc1ccccn1)NCc1ccccn1 shows pIC50 equal to 3.80

Input O=C(N=NC(=O)NCc1ccccn1)NCCCl . Output pIC50: 3.92

What the record says about O=C(N=NC(=O)NCC(Cl)(Cl)Cl)NCC(Cl)(Cl)Cl : pIC50 is 3.73

Lab book: pIC50 of O=C(N=NC(=O)Nc1cccc(Cl)c1)NCc1cccnc1 noted as 4.82

Input O=C(/N=N/C(=O)NCCCl)NCCCl . Output pIC50: 3.88
